# assayed.target: human M2 receptor (Homo sapiens)
# Sequence (P08172 whole entry): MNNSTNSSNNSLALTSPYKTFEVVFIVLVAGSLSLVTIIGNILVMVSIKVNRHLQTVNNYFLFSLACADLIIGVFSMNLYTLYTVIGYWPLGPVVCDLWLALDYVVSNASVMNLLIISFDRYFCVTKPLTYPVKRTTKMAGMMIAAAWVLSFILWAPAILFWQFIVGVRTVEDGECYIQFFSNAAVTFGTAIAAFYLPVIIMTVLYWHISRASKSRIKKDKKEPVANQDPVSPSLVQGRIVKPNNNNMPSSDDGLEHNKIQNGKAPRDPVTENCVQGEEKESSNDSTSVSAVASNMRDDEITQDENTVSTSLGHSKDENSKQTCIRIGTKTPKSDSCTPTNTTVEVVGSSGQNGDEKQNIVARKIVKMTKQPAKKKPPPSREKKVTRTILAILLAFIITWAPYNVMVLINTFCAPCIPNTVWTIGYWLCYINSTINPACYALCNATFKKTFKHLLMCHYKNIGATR
# condition.details: Receptor activity EC50, M2-GIRK1/4 activation test, acetylcholine at EC20; allosteric potency; in some cases mean values from two or more determinations
parameter.measured: EC50 (nM)
Value expressed in nM; do not type the unit.

CC[C@@H](NC(=O)c1cn(-c2c(F)cccc2F)c2nc(N3CCC(C)(O)C3)ccc2c1=O)C(F)(F)F (mixture of isomers) [Example 276] = 80

q: Could you please provide reported EC50 for CC[C@H](NC(=O)c1cn(-c2c(F)cccc2Cl)c2nc(N3C[C@@H](O)CC3=O)ccc2c1=O)C(F)(F)F [Example 351] ? Thanks!
a: 17

q: Supply measured EC50 of CC(C)(C)[C@H](NC(=O)c1cn(-c2c(F)cc(F)cc2F)c2nc(N3CCNC3=O)ccc2c1=O)C(F)(F)F [Example 359] in your reply.
a: 13

q: Please give measured EC50 of the following entry: C[C@H](NC(=O)c1cn(-c2c(F)cc(F)cc2Cl)c2nc(N3CCC(C)(C)C3=O)ccc2c1=O)C(F)(F)F [Example 335]
a: 23
